# IC50 annotations
Target: T1, human immunoglobulin E (hIgE) (human, UniProt P01854-1 1-428)
T1 construct: also called human IgE; Native IgE (Abcam)
T1 sequence (P01854 whole entry): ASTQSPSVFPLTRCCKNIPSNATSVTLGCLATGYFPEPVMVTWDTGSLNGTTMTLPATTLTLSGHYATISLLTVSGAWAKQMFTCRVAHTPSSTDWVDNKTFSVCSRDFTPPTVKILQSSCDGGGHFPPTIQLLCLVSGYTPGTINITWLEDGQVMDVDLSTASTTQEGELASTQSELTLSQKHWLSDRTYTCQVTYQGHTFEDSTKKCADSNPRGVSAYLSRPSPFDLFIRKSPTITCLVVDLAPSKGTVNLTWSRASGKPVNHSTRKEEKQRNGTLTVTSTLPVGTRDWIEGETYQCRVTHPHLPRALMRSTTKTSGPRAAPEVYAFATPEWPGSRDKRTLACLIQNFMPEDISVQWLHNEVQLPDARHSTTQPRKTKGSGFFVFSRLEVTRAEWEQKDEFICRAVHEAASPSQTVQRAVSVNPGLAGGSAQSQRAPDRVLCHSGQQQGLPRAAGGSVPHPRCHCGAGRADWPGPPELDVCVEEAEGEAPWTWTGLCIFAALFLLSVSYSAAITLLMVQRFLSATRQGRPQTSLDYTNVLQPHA
Test: SPR competition, hIgE over hFcεRIα chip, pH 5.5
Numbers only; they are read as µg/mL.

18B9_VH_S35H_VL_Y49H (antibody, V domains shown) VH: QVQLVESGGGLVQPGGSLRLSCAASGFTFSSYVMHWVRQAPGKGLEWVSSIYSDGSHTYYADSVKGRFTISRDNAKNTLYLQMNSLKSEDTAVYYCAKNLEHYSGSYYYTDPRYDYWGQGTQVTVSS VL: SSALTQPSALSVTLGQTAKITCQGGSLGSSYVHWYQQKPGQAPVLVIHDGDSRPSGIPERFSGSSSGGTATLTISGAQAEDEDDYYCQSADSSGNAVFGGGTHLTVL ... 24.6

Lab note: next binder to report on.
# IC50 of VL18E2_Y34H (antibody, V domains shown) VH: QLQLVESGGGLVQPGGSLRLSCAASGFTFSSYVMSWVRQAPGKGLEWVSSIYHDGSHTYYADFVKGRFTISRDNAKNTLYLQMNSLKSEDTAVYYCASGTSYSGSYYYTDPFFGSWGQGTQVTVSS VL: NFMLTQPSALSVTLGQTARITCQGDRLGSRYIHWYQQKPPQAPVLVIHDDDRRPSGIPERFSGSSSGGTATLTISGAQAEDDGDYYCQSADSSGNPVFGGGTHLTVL = 5.18
